Ref: patent US20210206850A1

I'd appreciate it if you could supply IC50 values for the items below.
Target: T1, human CD47 (full length) expressed on cells (human, UniProt Q08722 19-323)
T1 construct: whole, on cells; also called human CD47/CHO cells; CHO/CD47 cells
T1 sequence (Q08722 19-323): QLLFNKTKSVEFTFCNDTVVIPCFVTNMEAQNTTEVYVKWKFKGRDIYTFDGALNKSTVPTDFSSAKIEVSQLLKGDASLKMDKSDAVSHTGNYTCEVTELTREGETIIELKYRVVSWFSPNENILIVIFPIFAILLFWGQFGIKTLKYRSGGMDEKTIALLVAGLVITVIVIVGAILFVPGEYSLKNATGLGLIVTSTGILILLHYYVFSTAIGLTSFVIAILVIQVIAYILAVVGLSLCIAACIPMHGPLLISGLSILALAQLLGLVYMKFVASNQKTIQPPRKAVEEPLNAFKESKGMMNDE
Experiment: FACS ligand blocking on CD47-CHO cells; blocked ligand FITC human SIRPa huFc at 4 ug/ml
Numbers only, in µg/mL.

Some solved entries appear below for comparison.
• D8S1 mouse/human chimeric anti-human CD47 antibody (antibody, V domains shown, also called chimeric D8S1) VH: EVQLQQSVAELVRPGASVKLSCTVSGFNIKNTYIYWVKQRPEQGLEWIGRIDPANGNTKDAPKFQGKATMTADTSSNTAYLQLSSLTSEDTAIYYCARGYGSGFAYWGQGTLVTVSA VL: DIQMTQTTSSLSASLGDRVTISCRASQDISNHLNWYQQKPDGIVKLLIYYTSRLHSGVPSRFSGSGSGTDYSLTISNLEQEDIATYFCQQGSTLPFTFGSGTKLEIK = 19.4
• D96S1 mouse/human chimeric anti-human CD47 antibody (antibody, V domains shown, also called chimeric D96S1) VH: EVQLQQSGAELVKPGASVKLSCTASGFNIKDTYIHWVKQRPEQGLEWIGRIDPANGNIKSDPKFQGKATVTADTSSNTAYLQLSSLTSEDTAVYYCARSYGSSFASWGQGTLVTVSP VL: DIQMTQTTSSLSASLGDRVTISCRASQDISNHLNWYQQKPDGAVKLLIYYTSRLHSGVPSRFSGSGSGTDYSLTISNLEQEDIATYFCQQGSTFPYTFGGGTKLEIK = 11.3
• D125S3 mouse/human chimeric anti-human CD47 antibody (antibody, V domains shown, also called chimeric D125S3) VH: EVQLVESGGDLVKPGGSLNLSCAASGFTFSDYGMSWVRQTPDMRLEWVATISKYGTYTSYPDSVKGRFTISRSNAKNTLYLQMSSLKSADTALYYCARRFFGNYNYWYFDVWGAGTTVTVSS VL: DIVLTQSPASLAVSLGQRATFSCRASESVDEFGISYIHWYKKSPGQPPKLLIYRASTLESGISARFSGSGSGTDFTLTINPVETDDVATYYCQQSNQDPLTFGAGTKLELK = 15.4

Kindly give each listed record's IC50.
1. D36S4 mouse/human chimeric anti-human CD47 antibody (antibody, V domains shown, also called chimeric D36S4 antibody; D36S4 H/L) VH: EVKLEESGGGLVQPGGSMKLSCVASGFTFSRYWMNWVRQSPDKGLEWVAQIRLKSDNYETHYAESVKGRFTISRDDSKSSVYLQMNNLRAEDTGIYYCIEEGGYYVPFAYWGQGTLVTVSA VL: DIVVSQSPSSLAVSAGEKVTMSCKSSQSLFKSRTRKNYLAWYQQRPGQSPKLLIYWASIRESGVPDRFTGSGSGTEFTLTISSVQAEDLAVYYCKQSYYLLTFGAGTKLELK
2. D41S2 mouse/human chimeric anti-human CD47 antibody (antibody, V domains shown, also called chimeric D41S2) VH: EVQLQQSVAELVRPGASVKLSCTPSGFNIKNTYIYWVRQRPEQGLEWIGRIDPANGNTKDAPKFQGKATMTADTSSNTAYLQLSSLTSEDTAIYYCARGYGSGFAYWGQGTLVTVSA VL: DIQMTQTTSSLSASLGDRVTISCRASQDISNHLNWYQQKPDGTVKLLIYYTSRLHSGVPSRFSGSGSGTDYSLTISNLEQEDIATYFCQQGSTLPFTFGSGTKLEIK
3. D28S1 mouse/human chimeric anti-human CD47 antibody (antibody, V domains shown, also called chimeric D28S1; D28S1VH/VL) VH: EVQLVESGGDLVKPGGSLKLSCAASGFTFTSYGMSWVRQTPDKRLEWVATINTGGSYTYYPDSVKGRFTISRDNAKNTLYLQMSSLKSEDTAMYYCARHTIKSLMDYWGQGTSVTVSS VL: ETTVTQSPASLSMAIGEKVTIRCITSTDIDDDMNWYQQKPGEPPKLLISEGNTLRPGVPSRFSSSGYGTDFVFIIENMFSEDVADYYCLQSDNLPYTFGSGTKLEIK

Reply:
1: 5.1; 2: 11.6; 3: 12.3
